- measured_on: Diaphorase
- experimental_details: peptide array, 10 uM diaphorase, binding without FAD / with FAD
Overview of reported noFAD/FAD across a group of binders:
Lab note: write the figure by itself, no unit.

Here's what some known entries look like.
AFYGLELGGSG
0.45
YRNAAWFSGGSG
1.51
WLDLGVFPYQHLGSG
0.765
RLYPQGYGGSG
1.06
DLFQLVFSGSG
0.499

Q: # query: noFAD/FAD of entry `DLDKAFGGSG`
Result: 0.865

Q: What measured noFAD/FAD goes with `KHSFQKELGGSG` ?
Result: 0.794

Q: Fill in the blank: the reported noFAD/FAD of `YRFQSGLPAKDGSG` is ____.
Result: 2.49
